# target.desc: T1, Recombinant human Gβ1γ2 (human, UniProt P62873 1-340; P59768 1-71)
# T1 construct: G-protein beta 1 subunit, human, recombinant; G-protein gamma 2 subunit, human, recombinant; Preformed heterodimer bought as such; detected by an anti-Gβ antibody; also called Gβγ; purified Gβγ; source: bought: Calbiochem-Merck Millipore (recombinant)
# method.notes: pull-down; competition: GST-AGS8-C (100 nM) incubated with recombinant human Gβ1γ2 (10 nM) in the presence of rising doses of peptide CP1 or CP9, adsorbed to a glutathione matrix; immunoblot with densitometry, n = 6
# measurement.conditions: both partners purified
parameter: IC50 (µM)
# unit: µM | format: bare number

// IC50 value for SFVIVDWNKAIPGDVVTGYLVYSASYEDFI (About 97% HPLC purity; source: synthetic peptide (Invitrogen)) [AGS8-peptide CP9] : 2.77

Looking up APRNITVVAMEGCHSFVIVDWNKAIPGDV (About 97% HPLC purity; source: synthetic peptide (Invitrogen)) [AGS8-peptide CP1] , I see its IC50 listed as 6.73
